Test: Half life in plasma of Wistar rat with LPS-induced severe inflammatory response at 6 mg/kg, iv administered as single dose after 6 hrs by microdialysis technique
Format: ADME, organism-based
Parameters: dose 6 mg/kg, route intravenous
Measured Property: half-life (h)
Value expressed in h; do not type the unit.

Respond only with half-life recorded for C[C@@H](c1ncncc1F)[C@](O)(Cn1cncn1)c1ccc(F)cc1F [VORICONAZOLE]
11.3

###

Test: fTmax in skeletal muscle of Wistar rat with LPS-induced severe inflammatory response at 6 mg/kg, iv administered as single dose after 6 hrs by microdialysis technique
Assay type: ADME, organism-based, Muscle tissue
Set-up: dose 6 mg/kg, route intravenous
Condition Notes: read-out: fTmax (converted)
Measured Property: Tmax
Answer by giving the amount and then stating its unit.

Respond only with Tmax recorded for C[C@@H](c1ncncc1F)[C@](O)(Cn1cncn1)c1ccc(F)cc1F [VORICONAZOLE]
2.17 h
